System: Escherichia coli
assayProcedure: Antimicrobial activity against Escherichia coli
Format: functional
measuredQuantity: MIC (µg/mL)
Use µg/mL as the unit, but write only the number.

Consider the worked cases shown below.
compound	studySystem	measuredQuantity	numericReadout
CO/N=C(\C(=O)N[C@@H]1C(=O)N2C(C(=O)O)=C(COC(C)=O)CS[C@H]12)c1csc(N)n1	Escherichia coli	MIC	0.06
N[C@@H](C(=O)N[C@@H]1C(=O)N2C(C(=O)O)=C(Cl)CS[C@H]12)c1ccccc1 [CEFACLOR ANHYDROUS]	Escherichia coli	MIC	8

// recorded MIC for CC1(C)S[C@@H]2[C@H](NC(=O)[C@H](N)c3ccc(O)cc3)C(=O)N2[C@H]1C(=O)O : 4

----------
System: Haemophilus parasuis
assayProcedure: Antimicrobial activity against Haemophilus parasuis BB 1019
Assay type: functional
studyConditions: Glaesserella parasuis
measuredQuantity: MIC

Consider the worked cases shown below.
molecule	studySystem	MIC
CC1(C)S[C@@H]2[C@H](NC(=O)[C@H](N)c3ccc(O)cc3)C(=O)N2[C@H]1C(=O)O	Haemophilus parasuis	> 256 µg/mL
CO/N=C(\C(=O)N[C@@H]1C(=O)N2C(C(=O)O)=C(COC(C)=O)CS[C@H]12)c1csc(N)n1	Haemophilus parasuis	0.06 µg/mL

// recorded MIC for N[C@@H](C(=O)N[C@@H]1C(=O)N2C(C(=O)O)=C(Cl)CS[C@H]12)c1ccccc1 [CEFACLOR ANHYDROUS] : > 16 µg/mL

// recorded MIC for Cc1onc(-c2ccccc2)c1C(=O)N[C@@H]1C(=O)N2[C@@H]1SC(C)(C)[C@@H]2C(=O)O : ≤ 0.25 µg/mL

----------
In this section, each of the compounds is paired with its reported MIC.
Test system: Haemophilus parasuis
assayProcedure: Antimicrobial activity against Haemophilus parasuis BB 1018
Assay type: functional
studyConditions: Glaesserella parasuis

Consider the worked cases shown below.
compound	result
CC1(C)S[C@@H]2[C@H](NC(=O)[C@H](N)c3ccc(O)cc3)C(=O)N2[C@H]1C(=O)O [AMOXICILLIN]	> 256 mg/L
Cc1onc(-c2ccccc2)c1C(=O)N[C@@H]1C(=O)N2[C@@H]1SC(C)(C)[C@@H]2C(=O)O [OXACILLIN]	≤ 0.25 mg/L
CO/N=C(\C(=O)N[C@@H]1C(=O)N2C(C(=O)O)=C(COC(C)=O)CS[C@H]12)c1csc(N)n1 [CEFOTAXIME]	0.06 mg/L

// recorded MIC for N[C@@H](C(=O)N[C@@H]1C(=O)N2C(C(=O)O)=C(Cl)CS[C@H]12)c1ccccc1 [CEFACLOR ANHYDROUS] : > 16 mg/L

----------
Test system: Haemophilus parasuis
assayProcedure: Antimicrobial activity against Haemophilus parasuis BB 1024
Assay type: functional
studyConditions: Glaesserella parasuis
measuredQuantity: MIC

molecule	result
N[C@@H](C(=O)N[C@@H]1C(=O)N2C(C(=O)O)=C(Cl)CS[C@H]12)c1ccccc1 [CEFACLOR ANHYDROUS]	> 16 µg/mL
CO/N=C(\C(=O)N[C@@H]1C(=O)N2C(C(=O)O)=C(COC(C)=O)CS[C@H]12)c1csc(N)n1 [CEFOTAXIME]	0.06 µg/mL
CC1(C)S[C@@H]2[C@H](NC(=O)[C@H](N)c3ccc(O)cc3)C(=O)N2[C@H]1C(=O)O [AMOXICILLIN]	> 256 µg/mL

Now let's try a different one.
// recorded MIC for Cc1onc(-c2ccccc2)c1C(=O)N[C@@H]1C(=O)N2[C@@H]1SC(C)(C)[C@@H]2C(=O)O [OXACILLIN] : ≤ 0.25 µg/mL
